This listing pairs compounds with measured Activity.
assay: Cytotoxicity against WNV infected BHK21 cells at 15 uM; type: cell-based, Mesocricetus auratus; conditions: hamster, bhk-21, 15 µM
PARAMETER_MEASURED: Activity (%)

{"SMILES_NOTATION": "Cc1ccc(C(=O)OC[C@H]2O[C@@H](n3cc(Cn4ccc(=O)[nH]c4=O)nn3)C[C@@H]2OC(=O)c2ccc(C)cc2)cc1", "PARAMETER_MEASURED": "Activity", "QUANTITATIVE_RESULT": 3.37}
{"SMILES_NOTATION": "Nc1ncnc2c1ncn2Cc1cn([C@H]2C[C@H](O)[C@@H](CO)O2)nn1", "PARAMETER_MEASURED": "Activity", "QUANTITATIVE_RESULT": 7.85}
{"SMILES_NOTATION": "Cc1ccc(C(=O)OC[C@H]2O[C@@H](n3cc(Cn4ccc(N)nc4=O)nn3)C[C@@H]2OC(=O)c2ccc(C)cc2)cc1", "PARAMETER_MEASURED": "Activity", "QUANTITATIVE_RESULT": 4.08}
{"SMILES_NOTATION": "C#CCn1ccc(=O)[nH]c1=O", "PARAMETER_MEASURED": "Activity", "QUANTITATIVE_RESULT": 2.76}
{"SMILES_NOTATION": "C#CCn1cnc2c(N)ncnc21", "PARAMETER_MEASURED": "Activity", "QUANTITATIVE_RESULT": 3.8}
{"SMILES_NOTATION": "O=c1ccn(Cc2cn([C@H]3C[C@H](O)[C@@H](CO)O3)nn2)c(=O)[nH]1", "PARAMETER_MEASURED": "Activity", "QUANTITATIVE_RESULT": 9.5}
{"SMILES_NOTATION": "Cc1ccc(C(=O)OC[C@H]2O[C@@H](n3cc(Cn4ccc5c(Cl)nc(N)nc54)nn3)C[C@@H]2OC(=O)c2ccc(C)cc2)cc1", "PARAMETER_MEASURED": "Activity", "QUANTITATIVE_RESULT": 0.17}
{"SMILES_NOTATION": "Nc1ccn(Cc2cn([C@H]3C[C@H](O)[C@@H](CO)O3)nn2)c(=O)n1", "PARAMETER_MEASURED": "Activity", "QUANTITATIVE_RESULT": 9.41}
{"SMILES_NOTATION": "Cc1ccc(C(=O)OC[C@H]2O[C@@H](n3cc(Cn4ccc5c(Cl)ncnc54)nn3)C[C@@H]2OC(=O)c2ccc(C)cc2)cc1", "PARAMETER_MEASURED": "Activity", "QUANTITATIVE_RESULT": 0.31}

---

experiment: Cytotoxicity against DENV infected BHK21 cells at 15 uM; assay type: cell-based, Mesocricetus auratus; conditions: hamster, bhk-21, 15 µM
This listing pairs molecules with measured Activity.

{"SMILES_NOTATION": "O=c1ccn(Cc2cn([C@H]3C[C@H](O)[C@@H](CO)O3)nn2)c(=O)[nH]1", "Activity, %": 9.5}
{"SMILES_NOTATION": "Nc1ncnc2c1ncn2Cc1cn([C@H]2C[C@H](O)[C@@H](CO)O2)nn1", "Activity, %": 7.85}
{"SMILES_NOTATION": "Nc1nc(Cl)c2ccn(Cc3cn([C@H]4C[C@H](O)[C@@H](CO)O4)nn3)c2n1", "Activity, %": 1.3}
{"SMILES_NOTATION": "Cc1ccc(C(=O)OC[C@H]2O[C@@H](n3cc(Cn4ccc(N)nc4=O)nn3)C[C@@H]2OC(=O)c2ccc(C)cc2)cc1", "Activity, %": 4.08}
{"SMILES_NOTATION": "Nc1ncnc2c1ccn2Cc1cn([C@H]2C[C@H](O)[C@@H](CO)O2)nn1", "Activity, %": 3.14}
{"SMILES_NOTATION": "C#CCn1ccc2c(Cl)ncnc21", "Activity, %": -9.83}
{"SMILES_NOTATION": "Cc1ccc(C(=O)OC[C@H]2O[C@@H](n3cc(Cn4ccc5c(Cl)nc(N)nc54)nn3)C[C@@H]2OC(=O)c2ccc(C)cc2)cc1", "Activity, %": 0.17}
{"SMILES_NOTATION": "Cc1ccc(C(=O)OC[C@H]2O[C@@H](n3cc(Cn4ccc5c(Cl)ncnc54)nn3)C[C@@H]2OC(=O)c2ccc(C)cc2)cc1", "Activity, %": 0.31}
{"SMILES_NOTATION": "OC[C@H]1O[C@@H](n2cc(Cn3cnc4c3ncn3ccnc43)nn2)C[C@@H]1O", "Activity, %": -2.95}

---

assay: Cytotoxicity against WNV infected BHK21 cells at 15 uM; assay type: cell-based, Mesocricetus auratus; conditions: hamster, bhk-21, 15 µM
This listing pairs compounds with measured Activity.

{"SMILES_NOTATION": "O=C(Nc1ncnc2c1ncn2Cc1cn([C@H]2C[C@H](O)[C@@H](CO)O2)nn1)c1ccccc1", "RESULT_UNIT": "%", "Activity": 5.54}
{"SMILES_NOTATION": "C#CCn1ccc2c(Cl)ncnc21", "RESULT_UNIT": "%", "Activity": -9.83}
{"SMILES_NOTATION": "Nc1nc(Cl)c2ccn(Cc3cn([C@H]4C[C@H](O)[C@@H](CO)O4)nn3)c2n1", "RESULT_UNIT": "%", "Activity": 1.3}
{"SMILES_NOTATION": "Nc1ncnc2c1ccn2Cc1cn([C@H]2C[C@H](O)[C@@H](CO)O2)nn1", "RESULT_UNIT": "%", "Activity": 3.14}
{"SMILES_NOTATION": "OC[C@H]1O[C@@H](n2cc(Cn3cnc4c3ncn3ccnc43)nn2)C[C@@H]1O", "RESULT_UNIT": "%", "Activity": -2.95}

---

assay: Cytotoxicity against human GS4.1 cells at 15 uM; format: cell-based

{"SMILES_NOTATION": "C#CCn1cnc2c(N)ncnc21", "Activity [%]": -10.4}
{"SMILES_NOTATION": "O=c1ccn(Cc2cn([C@H]3C[C@H](O)[C@@H](CO)O3)nn2)c(=O)[nH]1", "Activity [%]": -5.59}
{"SMILES_NOTATION": "Nc1ncnc2c1ccn2Cc1cn([C@H]2C[C@H](O)[C@@H](CO)O2)nn1", "Activity [%]": -3.79}
{"SMILES_NOTATION": "Cc1ccc(C(=O)OC[C@H]2O[C@@H](n3cc(Cn4ccc(=O)[nH]c4=O)nn3)C[C@@H]2OC(=O)c2ccc(C)cc2)cc1", "Activity [%]": -4.12}
{"SMILES_NOTATION": "Cc1ccc(C(=O)OC[C@H]2O[C@@H](n3cc(Cn4ccc5c(Cl)ncnc54)nn3)C[C@@H]2OC(=O)c2ccc(C)cc2)cc1", "Activity [%]": 20.77}
{"SMILES_NOTATION": "Nc1ccn(Cc2cn([C@H]3C[C@H](O)[C@@H](CO)O3)nn2)c(=O)n1", "Activity [%]": -5.59}
{"SMILES_NOTATION": "OC[C@H]1O[C@@H](n2cc(Cn3cnc4c3ncn3ccnc43)nn2)C[C@@H]1O", "Activity [%]": -2.24}
{"SMILES_NOTATION": "C#CCn1ccc2c(Cl)ncnc21", "Activity [%]": 1.84}
{"SMILES_NOTATION": "Cc1ccc(C(=O)OC[C@H]2O[C@@H](n3cc(Cn4ccc(N)nc4=O)nn3)C[C@@H]2OC(=O)c2ccc(C)cc2)cc1", "Activity [%]": -8.12}
{"SMILES_NOTATION": "Nc1nc(Cl)c2ccn(Cc3cn([C@H]4C[C@H](O)[C@@H](CO)O4)nn3)c2n1", "Activity [%]": -3.3}
{"SMILES_NOTATION": "Nc1ncnc2c1ncn2Cc1cn([C@H]2C[C@H](O)[C@@H](CO)O2)nn1", "Activity [%]": -0.61}
{"SMILES_NOTATION": "Cc1ccc(C(=O)OC[C@H]2O[C@@H](n3cc(Cn4ccc5c(Cl)nc(N)nc54)nn3)C[C@@H]2OC(=O)c2ccc(C)cc2)cc1", "Activity [%]": 6.49}
{"SMILES_NOTATION": "O=C(Nc1ncnc2c1ncn2Cc1cn([C@H]2C[C@H](O)[C@@H](CO)O2)nn1)c1ccccc1", "Activity [%]": -3.55}
{"SMILES_NOTATION": "C#CCn1ccc(=O)[nH]c1=O", "Activity [%]": -8.85}

---

This listing pairs compounds with measured Activity.
assay: Cytotoxicity against DENV infected BHK21 cells at 15 uM; format: cell-based, Mesocricetus auratus; conditions: hamster, bhk-21, 15 µM

{"SMILES_NOTATION": "O=C(Nc1ncnc2c1ncn2Cc1cn([C@H]2C[C@H](O)[C@@H](CO)O2)nn1)c1ccccc1", "Activity (%)": 5.54}
{"SMILES_NOTATION": "Nc1ccn(Cc2cn([C@H]3C[C@H](O)[C@@H](CO)O3)nn2)c(=O)n1", "Activity (%)": 9.41}
{"SMILES_NOTATION": "C#CCn1cnc2c(N)ncnc21", "Activity (%)": 3.8}
{"SMILES_NOTATION": "C#CCn1ccc(=O)[nH]c1=O", "Activity (%)": 2.76}
{"SMILES_NOTATION": "Cc1ccc(C(=O)OC[C@H]2O[C@@H](n3cc(Cn4ccc(=O)[nH]c4=O)nn3)C[C@@H]2OC(=O)c2ccc(C)cc2)cc1", "Activity (%)": 3.37}
